Data origin: the nanobody polyreactivity screen of Harvey et al. (2022)

ASSAY OVERVIEW: yeast display, Sf9 membrane polyspecificity reagent, FACS + sequencing; frameworks hold sequencing errors
PROPERTY NAME: polyreactivity (PSR sort gate)

QVQLVESGGGLVQAGGSLRLSCAASGSTFHYYAMGWYRQAPGKERELVAAINSGARTYYADSVKGRFTISRDNAKNTVYLQMNSLKPEDTAVYYCAKDYTYSFGRSLDYWGQGTQVTVSS :: low polyreactivity
QVQLVESGGGLVQAGGSLRLSCAASVRTFYYYAMGWYRQAPGKERELVAAIRWSTGSTYYADSVKGRFTISRDNAQNTVYLQMNSLKPEDTAVYYCAADTWYIQWGYYWGQGTQVTVSS :: low polyreactivity
QVQLVESGGGLVQAGGSLRLSCAASGTFYYNTMGCYRQAPGKERELVAAITSGGRTYADSVKGRFTISRDNAKNTVYLQMNSLKEEDTAVYYCAVDKPYPYRIIIWYEYDYWGQGNQVTVSS :: low polyreactivity

----------
ASSAY OVERVIEW: yeast display, Sf9 membrane polyspecificity reagent, FACS + sequencing; frameworks hold sequencing errors
PROPERTY NAME: polyreactivity (PSR sort gate)

QVQLVESGGGLVQAGGSLRLSCAASGRTFRWYTMGWYRQAPGKERELVAAITSRGGSTYADSVKGRFTISRDNAKNTVYLQMNSMKPEDTAVYYCNAARTYQYDYWGQGTQVTVSS :: high polyreactivity
QVQLVESGGGLVQAGGSLRLSCAASGRTFGYNVMGWYRQAPGKERELVAAISSGGNTYYADSVKGRFTISRDNAKNTVYLQMNSLKPEDTAVYYCNARQYRYLSDRMNYWGQGTQVTVSS :: low polyreactivity
QVQLVESGGGLVQAGGSLRLSCAASGRIFYTNAMGWSRQAPGKERELVAVISWGGDTTYYADSVKGRFTISRDNAKNTVYLQMNSLKPEDTAVYYCNADWGPTYEIYDSWGQGTQVTVSS :: low polyreactivity
QVQLVESGGGLVQAGGSLRLSCAASGFIFPSNAMGWYRQAPGKERELVAAISSRGTRTYYADSVKGRFTISRDNAKNTVYLQMNSLKPEDTAVYYCAKYGYWGQGTQVTVSS :: high polyreactivity
QVQLVESGGGLVQAGGSLRLSCAASGRTFYYYAMGWYRQAPGKEREFVAAISWSGVRTSYADSVKGRFTISRDNAKNTVYLQMNSQKPEDTAVYYCNVAVAFYYDYWYSTYLTYEYDYWGQGTQVTVSS :: high polyreactivity

**Query** What polyreactivity (PSR sort gate) value was documented for this sequence, QVQLVESGGGLVQAGGSLRLSCAASGFTFDLYAKGWYRQAPGKERELVAVITRGGSTYYADSVKGRFTISRDNAKNTVYLQMNSLKPEDTAVYYCAKYSIIDWWGGEDYWGQGTQVTVSS ?
**Result** high polyreactivity

**Query** What polyreactivity (PSR sort gate) value was documented for this sequence, QVQLVESGGGLVQAGGSLRLSSAASGITFYDYAMGWSRPSPGKERELVAAINSSGVRTYYADSVKGRFTISRDNAKNTVYLQMKSLNPEYTAVYYCAAKLVYGGRYGYWGQGTQVTVSS ?
**Result** high polyreactivity

**Query** What polyreactivity (PSR sort gate) value was documented for this sequence, QVQLVESGGGLVQAGGSLRLSCAASGRIFTSYAMGWYRQAPGKERELVAAISRRGDSTYYADSVKGRFTISRDNAKNTVYLQMNSLKPEDTAVYYCNARSSRIWDYYGFDYWGQGTQVTVSS ?
**Result** high polyreactivity

**Query** What polyreactivity (PSR sort gate) value was documented for this sequence, QVQLLESGGGLVQARGSLRLSCAASGSIFTYYAMGWYRQAPGIEREFVAAISRRGGSTYYADSVKGRFTISRDNAKNTVYLQMNSLKAVDTAVYYCAKDPSFTRGYKEGGGYDYWGQGTQVTVSS ?
**Result** high polyreactivity

**Query** What polyreactivity (PSR sort gate) value was documented for this sequence, QVQLVESGGGLVQAGGSLRLSCAASGFTFGANVMGWYRQAPGKERELVAGITWSGDSTYYADSVKGRFTISRDNAKNTVYLQMNSLKPDDTAVYYCAADVYDGEYILDYDYWGQGTQVTVSS ?
**Result** low polyreactivity

**Query** What polyreactivity (PSR sort gate) value was documented for this sequence, QVQLVESGGGLVQAGGSLRLSCAASGRTISKNTMGWYRQAPGKERELVAAISSSGGSTNYADSVKGRFTISRDNAKNTVYLQMNSLKPEETAVYYCAADPWRFRSRPVNYWGQGTQVSVSS ?
**Result** high polyreactivity

----------
ASSAY OVERVIEW: yeast display, Sf9 membrane polyspecificity reagent, FACS + sequencing; frameworks hold sequencing errors
PROPERTY NAME: polyreactivity (PSR sort gate)

QVQLVESGGGLVQAGGSLRLSCAASGSTYERYAMGWYRQAPGKERELVAAISAIGDSTYYADSVKGRITISRDNANNTVYLQMNSLKPEDTAVYYCAARYTRYHIGRGYYYWGQGTQVTVSS :: high polyreactivity
QVQLVESGGGLVQAGGSLRLSCAASGSTFLPNAMGWYRQAPGKERELVARISYSGGNTYYADSVKGRFTISRDNAKNTVYLQMNSLKPEDTAVYYCAAVGWYHDYYWGQGTQVTVSS :: high polyreactivity
QVQLEESGGGLVQAGGSLRFSCAASGITFDQNAMGWYRQAPGKEREFVAAISVSGGRTYYADSVKGPFTISRDNAKNSVYLQLNSLKPDDSAVYYCNADYAFYYPLEPLDVGYDYWGQGTQVTVSS :: high polyreactivity
QVQLVESGGGLVQAGGSLRLSSAASGYIFDWNAMGWYRQAPGKERELVAAISSGGRTNYADSVKGRFTISRDNAKNTVYLQMNSLKPEDTAVYYCAAVYTDPYVEYDYWGQGTQVTVSS :: low polyreactivity
QVQLVESGGGLVQAGGSLRLSCAASGRTFVYYAMGWYRQAPGKEREFVATITSSGGSTYYADSVKGRFTISRDNAKNTVYLQMNSLKPEDTAVYYCSASPYIRYSKVSKYYYWGQGTQVTVSS :: high polyreactivity

**Query** What polyreactivity (PSR sort gate) value was documented for this sequence, QVQLVESGGGLVQAGGSLRLSCAASGRIFRYNAMGWYRQAPGKERELVAAITKGGGSTYYADSVKGRFTISRDNAKNTVYLQMTSLNPEDTGVYYCAARRAVYRGNYWGQGTKVTVSS ?
**Result** high polyreactivity

**Query** What polyreactivity (PSR sort gate) value was documented for this sequence, QVQLVESGGGLVQAGGSLRLSCAASGRTFSSYAMGWYRQAPGKERELVAAIRVSGGITYYADSVKGRFTISRDNAKNTVYLQMNSLKPEDTAVYYCNAGVDFIGGSYLKYDYWGQGTKVTVSS ?
**Result** low polyreactivity

**Query** What polyreactivity (PSR sort gate) value was documented for this sequence, QVQLVESGGGLVQAGGSLRLSCAASGSIFPYYTMGWYRQAPGKERELVATITTGGSTNYADSVKGRFTISRDNAENTVYLQMNCLKPEDIAVYYCNKDGVVEVRFTGRQEYDYWGQGTQVTVSS ?
**Result** low polyreactivity

**Query** What polyreactivity (PSR sort gate) value was documented for this sequence, QVQLVESGGGLVQAGGSLRLSCAASGFNFTTYAMGSYRHAPGKERELVAAISGRGGTTDYADSVKGRFTISRDNAKNTVYLHMNSLKPEATAVYYCAADGYPGDDYWGQGTQVTVST ?
**Result** high polyreactivity

**Query** What polyreactivity (PSR sort gate) value was documented for this sequence, QVQLVASGGGLVQAGGSLRLSCAASGRTFYEYSIGWYRQAPGKERELDAGITSGGSTNYSDTVKGRFTISRDNATNPVFLLMNRLNPEDTAVYYCAAAYWGYEYDYWGQGTQVTLSS ?
**Result** low polyreactivity

**Query** What polyreactivity (PSR sort gate) value was documented for this sequence, QLQLVESGGGLVQAGGSLRLTCAASGSIFNDNAMGWYRPAPVKERELVAPINSDGSTYYADSVKGRFTISRDNAKNTVYLQMNSLKPEDTAVYYCNADTLLDNFTWDADGYDYWGQGTHVTVSS ?
**Result** low polyreactivity

----------
ASSAY OVERVIEW: yeast display, Sf9 membrane polyspecificity reagent, FACS + sequencing; frameworks hold sequencing errors
PROPERTY NAME: polyreactivity (PSR sort gate)

Past entries and their recorded results:
QVQLVESGGGLVQAGGSLRLSCAASGSIFYAYAMGWYRQAPGKEREFVAVISYSGGSTYYADSVKGRFTISRDNAKNTVYLQMNSLKPEDTAVYYCAARYRRPYSYYYWGQGTQVTVSS :: high polyreactivity
QVQLVESGGGLVQAGGSLRLICAASGSTFCRYAMGRDRQARGKEMELVAAISTRGGSTRYADSVKGRFTISRDYAKYTVYLLINRLKPEDTGVYYCDALGQGRTSATSFVDYEYWGQGTQVTVSS :: high polyreactivity
QVQLVESGGGLVQAGGSLRLSCAASGITFFDNAMGWYRQAPGKERELVATITGGGASTYYADSVKGRFTISRDNAKNTVYLLMNSLKPEDTAVYYCAADYVDGVYLEYGYWGQGTQVTVSS :: low polyreactivity
QVQLVESGGRLVQPGGSLRLSCAASGFIFFYYAMGWYSQAPGKESELVAAISSGGSTNYADSVKGRFTISRDNAKNTVYLQMNSLKPEDTAVYYCAKRPTGGYKYYYTTSKYDYWGQGTQVTVSS :: low polyreactivity

Now let's try a different one.
**Query** What polyreactivity (PSR sort gate) value was documented for this sequence, QVQLQESGGGLVQAGGDLRLSCAASGNIFRDYIMGWNRQAPGKEREFVAGIDRGANTNYADSVKGRFTISRDNAKNTVYLQMNSLKPEDTAVYYCAVHTDIVPDFIYWGQGTQVTVSS ?
**Result** low polyreactivity
